Tested on: MCF7
protocol text: Growth inhibition of human MCF7 cells incubated for 72 hrs by MTT assay
Assay type: functional
metric name: GI50 (nM)

Here is how some compounds turned out for GI50.
O=S(=O)(NCCCCNCc1ccc(Br)cc1)c1cc(C(F)(F)F)cc(C(F)(F)F)c1 ... 1500
O=S(=O)(NCCCNCc1cccc(Cl)c1)c1cc(C(F)(F)F)cc(C(F)(F)F)c1 ... 2600
COc1ccc(CNCCCNS(=O)(=O)c2cc(C(F)(F)F)cc(C(F)(F)F)c2)cc1 ... 2500
O=S(=O)(NCCCNCc1cccc2ccccc12)c1cc(C(F)(F)F)cc(C(F)(F)F)c1 ... 1400
CN(CCCNS(=O)(=O)c1cc(C(F)(F)F)cc(C(F)(F)F)c1)Cc1ccccc1 ... 16000
CC(C)(C)c1ccc(CNCCCNS(=O)(=O)c2cc(C(F)(F)F)cc(C(F)(F)F)c2)cc1 ... 2100
CC(C)(C)c1ccc(CNCCNS(=O)(=O)c2cc(C(F)(F)F)cc(C(F)(F)F)c2)cc1 ... 13000

[A] O=S(=O)(NCCCNCc1ccccc1)c1cc(C(F)(F)F)cc(C(F)(F)F)c1
[B] O=S(=O)(NCCCNCc1ccc(Br)cc1)c1cc(C(F)(F)F)cc(C(F)(F)F)c1
Task: Identify the item whose GI50 is the smaller number: A or B Write the label of whichever entry you select.
Output: B

Data origin: ChEMBL document CHEMBL5131478
